Ref: patent US20250011365A1

# measurement description: Study on pharmacokinetic properties in rats after intravenous injection
# assay setup: SD, rat, in vivo, 5 mg/kg
Numbered stars: 1 amine (or outer) side, 2 acyl side, 3 side chain; on linkers, the order of the positions; unused ones are H or OH. Bridge positions count the residues as written; N and C are the ends. Square brackets hold non-standard residues; d marks the D form. Peptide text beside a SMILES is read from it. * marks the point of attachment. Orn(4R-OH,5R-OCH2CH2NMe3+) = C[N+](C)(C)CCO[C@@H](N[*:3])[C@H](O)C[C@H](N[*:1])C(=O)[*:2]; pTerphenylCO(4''-OnC5H11) = CCCCCOc1ccc(-c2ccc(-c3ccc(C(=O)*)cc3)cc2)cc1; hTyr(3S-OH,4S-OH) = N[C@H](C(=O)O)[C@H](O)[C@@H](O)c1ccc(O)cc1; Pro(3S-OH,4S-Me) = C[C@H]1CN[C@H](C(=O)O)[C@H]1O; Hyp = O=C(O)[C@@H]1C[C@@H](O)CN1
recorded endpoint: AUC(0-inf)
Give me the value, and tack the unit on after it.

Item CCCCCOc1ccc(-c2ccc(-c3ccc(C(=O)N[C@H]4C[C@@H](O)[C@@H](OCC[N+](C)(C)C)NC(=O)[C@@H]5[C@@H](O)[C@@H](C)CN5C(=O)[C@H]([C@@H](C)O)NC(=O)[C@H]([C@H](O)[C@@H](O)c5ccc(O)cc5)NC(=O)[C@@H]5C[C@@H](O)CN5C(=O)[C@H]([C@@H](C)O)NC4=O)cc3)cc2)cc1 [Rezafungin, rezafungin, reference compound] ({pTerphenylCO(4''-OnC5H11)}-[Orn(4R-OH,5R-OCH2CH2NMe3+)]T[Hyp][hTyr(3S-OH,4S-OH)]T[Pro(3S-OH,4S-Me)]; lactam 1-C) has what recorded AUC(0-inf)?
104 µg·h/mL

====

# Test system: Candida albicans CMCC 98001
# measurement description: MIC assay, Candida standard strain (CLSI M27-A3)
# Assay type: cell-based
# assay setup: CMCC98001, 24 h, 35° C.
Numbered stars: 1 amine (or outer) side, 2 acyl side, 3 side chain; on linkers, the order of the positions; unused ones are H or OH. Bridge positions count the residues as written; N and C are the ends. Square brackets hold non-standard residues; d marks the D form. Peptide text beside a SMILES is read from it. * marks the point of attachment. Orn(4R-OH,5R-OCH2CH2NMe3+) = C[N+](C)(C)CCO[C@@H](N[*:3])[C@H](O)C[C@H](N[*:1])C(=O)[*:2]; hTyr(3S-OH,4S-OH) = N[C@H](C(=O)O)[C@H](O)[C@@H](O)c1ccc(O)cc1; X4 = CCCCCOc1c(F)cc(C#Cc2ccc3cc(C(=O)*)ccc3c2)cc1F; Pro(3S-OH,4S-Me) = C[C@H]1CN[C@H](C(=O)O)[C@H]1O; Hyp = O=C(O)[C@@H]1C[C@@H](O)CN1
recorded endpoint: MIC

For the molecule shown here, CCCCCOc1c(F)cc(C#Cc2ccc3cc(C(=O)N[C@H]4C[C@@H](O)[C@@H](OCC[N+](C)(C)C)NC(=O)[C@@H]5[C@@H](O)[C@@H](C)CN5C(=O)[C@H]([C@@H](C)O)NC(=O)[C@H]([C@H](O)[C@@H](O)c5ccc(O)cc5)NC(=O)[C@@H]5C[C@@H](O)CN5C(=O)[C@H]([C@@H](C)O)NC4=O)ccc3c2)cc1F [Example 14] (X4-[Orn(4R-OH,5R-OCH2CH2NMe3+)]T[Hyp][hTyr(3S-OH,4S-OH)]T[Pro(3S-OH,4S-Me)]; lactam 1-C) , give the reported MIC.
≤ 0.015 µg/mL

====

# Test system: Candida albicans ATCC 18804
# measurement description: MIC assay, Candida standard strain (CLSI M27-A3)
# Type: cell-based
# assay setup: ATCC18804, 24 h, 35° C.
Numbered stars: 1 amine (or outer) side, 2 acyl side, 3 side chain; on linkers, the order of the positions; unused ones are H or OH. Bridge positions count the residues as written; N and C are the ends. Square brackets hold non-standard residues; d marks the D form. Peptide text beside a SMILES is read from it. * marks the point of attachment. Orn(4R-OH,5R-OCH2CH2NMe3+) = C[N+](C)(C)CCO[C@@H](N[*:3])[C@H](O)C[C@H](N[*:1])C(=O)[*:2]; hTyr(3S-OH,4S-OH) = N[C@H](C(=O)O)[C@H](O)[C@@H](O)c1ccc(O)cc1; X1 = CCCCCOc1cc(F)c(C#Cc2ccc3cc(C(=O)*)ccc3c2)cc1F; X2 = CCCCCOc1ccc(C#Cc2ccc3cc(C(=O)*)ccc3c2)c(F)c1F; Pro(3S-OH,4S-Me) = C[C@H]1CN[C@H](C(=O)O)[C@H]1O; X3 = CCCCCOc1ccc(C#Cc2ccc3cc(C(=O)*)ccc3c2)cc1F; Hyp = O=C(O)[C@@H]1C[C@@H](O)CN1
recorded endpoint: MIC

Worked examples, 3 compounds total:
compound | MIC
CCCCCOc1cc(F)c(C#Cc2ccc3cc(C(=O)N[C@H]4C[C@@H](O)[C@@H](OCC[N+](C)(C)C)NC(=O)[C@@H]5[C@@H](O)[C@@H](C)CN5C(=O)[C@H]([C@@H](C)O)NC(=O)[C@H]([C@H](O)[C@@H](O)c5ccc(O)cc5)NC(=O)[C@@H]5C[C@@H](O)CN5C(=O)[C@H]([C@@H](C)O)NC4=O)ccc3c2)cc1F [Example 16] (X1-[Orn(4R-OH,5R-OCH2CH2NMe3+)]T[Hyp][hTyr(3S-OH,4S-OH)]T[Pro(3S-OH,4S-Me)]; lactam 1-C) | ≤ 0.015 µg/mL
CC[C@H](C)C[C@H](C)CCCCCCCCC(=O)N[C@H]1C[C@@H](O)[C@@H](NCCN)NC(=O)[C@@H]2[C@@H](O)CCN2C(=O)[C@H]([C@H](O)CCN)NC(=O)[C@H]([C@H](O)[C@@H](O)c2ccc(O)cc2)NC(=O)[C@@H]2C[C@@H](O)CN2C(=O)[C@H]([C@@H](C)O)NC1=O [Caspofungin, reference compound] | 0.06 µg/mL
CCCCCOc1ccc(C#Cc2ccc3cc(C(=O)N[C@H]4C[C@@H](O)[C@@H](OCC[N+](C)(C)C)NC(=O)[C@@H]5[C@@H](O)[C@@H](C)CN5C(=O)[C@H]([C@@H](C)O)NC(=O)[C@H]([C@H](O)[C@@H](O)c5ccc(O)cc5)NC(=O)[C@@H]5C[C@@H](O)CN5C(=O)[C@H]([C@@H](C)O)NC4=O)ccc3c2)cc1F [Example 10] (X3-[Orn(4R-OH,5R-OCH2CH2NMe3+)]T[Hyp][hTyr(3S-OH,4S-OH)]T[Pro(3S-OH,4S-Me)]; lactam 1-C) | ≤ 0.015 µg/mL

Now for the compound whose MIC we want.
Item under review: CCCCCOc1ccc(C#Cc2ccc3cc(C(=O)N[C@H]4C[C@@H](O)[C@@H](OCC[N+](C)(C)C)NC(=O)[C@@H]5[C@@H](O)[C@@H](C)CN5C(=O)[C@H]([C@@H](C)O)NC(=O)[C@H]([C@H](O)[C@@H](O)c5ccc(O)cc5)NC(=O)[C@@H]5C[C@@H](O)CN5C(=O)[C@H]([C@@H](C)O)NC4=O)ccc3c2)c(F)c1F [Example 8] (X2-[Orn(4R-OH,5R-OCH2CH2NMe3+)]T[Hyp][hTyr(3S-OH,4S-OH)]T[Pro(3S-OH,4S-Me)]; lactam 1-C) . Reported MIC?
≤ 0.015 µg/mL

====

# measurement description: Study on pharmacokinetic properties in rats after intravenous injection
# assay setup: SD, rat, in vivo, 5 mg/kg
Numbered stars: 1 amine (or outer) side, 2 acyl side, 3 side chain; on linkers, the order of the positions; unused ones are H or OH. Bridge positions count the residues as written; N and C are the ends. Square brackets hold non-standard residues; d marks the D form. Peptide text beside a SMILES is read from it. * marks the point of attachment. Orn(4R-OH,5R-OCH2CH2NMe3+) = C[N+](C)(C)CCO[C@@H](N[*:3])[C@H](O)C[C@H](N[*:1])C(=O)[*:2]; pTerphenylCO(4''-OnC5H11) = CCCCCOc1ccc(-c2ccc(-c3ccc(C(=O)*)cc3)cc2)cc1; hTyr(3S-OH,4S-OH) = N[C@H](C(=O)O)[C@H](O)[C@@H](O)c1ccc(O)cc1; Pro(3S-OH,4S-Me) = C[C@H]1CN[C@H](C(=O)O)[C@H]1O; Hyp = O=C(O)[C@@H]1C[C@@H](O)CN1
recorded endpoint: Vd (L/kg)
Could you give me the number in L/kg? Just the number is fine.

// returns reported Vd for input CCCCCOc1ccc(-c2ccc(-c3ccc(C(=O)N[C@H]4C[C@@H](O)[C@@H](OCC[N+](C)(C)C)NC(=O)[C@@H]5[C@@H](O)[C@@H](C)CN5C(=O)[C@H]([C@@H](C)O)NC(=O)[C@H]([C@H](O)[C@@H](O)c5ccc(O)cc5)NC(=O)[C@@H]5C[C@@H](O)CN5C(=O)[C@H]([C@@H](C)O)NC4=O)cc3)cc2)cc1 [Rezafungin, rezafungin, reference compound] ({pTerphenylCO(4''-OnC5H11)}-[Orn(4R-OH,5R-OCH2CH2NMe3+)]T[Hyp][hTyr(3S-OH,4S-OH)]T[Pro(3S-OH,4S-Me)]; lactam 1-C)
1.9
